- EXPERIMENT NOTES: human hepatoma cell viability loss – ATP luminescence, cytotoxicity control for P. falciparum antimalarial project, primary screen (AID 2303);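 also: 0% = DMSO wells and 100% = digitonin-killed cells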
- EXPERIMENTAL PARAMETERS: HepG2 viability, 24-48 h, at 10 µM, active compounds read high
OBSERVED PROPERTY: inhibition (%)

> print(dat)
                                    compound  readout.number
 1  CN(C)C(=S)N=Nc1c(O)[nH]c2ccc(OC(F)(F)F)cc12              36
 2  CC(=O)Nc1ccc(C(=O)Nc2cccc(-c3ccc(-c4nc5ccc(C(F)(F)F)cc5[nH]4)s3)c2)cn1              42
 3  Oc1ccc(CCNc2nc(NCCCOc3ccccc3-c3cccnc3)nc(N3CCNCC3)n2)cc1              10
 4       O=C(Nc1cccc(Cl)c1Cl)Nc1ccnc2ccccc12              31
 5  Cc1cc(N(C)C)nc(Nc2ccc(NC(=O)c3ccccc3C)cc2)n1              -5
 6  O=C(Cn1c(CCc2cccc(F)c2F)nc(=O)c2cccnc21)N(Cc1ccc(-c2ccc(C(F)(F)F)cc2)cc1)C1CCN(C2CCOCC2)CC1             100
 7  Cc1[nH]c(C)c(-c2ccc(-c3ccc(OC(F)(F)F)cc3)nc2)c(=O)c1Cl              11
 8  Cc1c(CNCCCNc2cc(=O)c3ccccc3[nH]2)sc(C(F)F)c1Br               0
 9        CC(=O)Nc1nc(-c2ccccc2)[nH]c1C(N)=O              10
10  CCC(NCc1ccc(-c2cncc(C(=O)NCC(C)C)c2)cc1)c1ccccc1 (centres undefined)              14
11  CCN(CC)C(=NCCCCCCN=C(/N=C(\N)Nc1ccc(Cl)c(Cl)c1)N(CC)CC)/N=C(\N)Nc1ccc(Cl)c(Cl)c1               1
12  NC(=O)c1cccc(CN2Cc3ccccc3OC3(CCN(Cc4c[nH]c5cnccc45)CC3)C2)c1               9
13  O=C(CSc1nc(-c2ccccc2Cl)ns1)Nc1cccc(Cl)c1              -8
14  COc1ccc(NC(=O)c2ccc(NC(=O)c3ccc(Cl)cc3)cc2)cc1N1CCN(C)CC1              23
15  CCCNc1ccc2nccc(CCN3CCC(NCc4ccc5c(n4)NC(=O)CS5)CC3)c2n1              24
16  COc1ccc(NC(=O)/C=C/c2ccccc2Cl)cc1OCCN1CCN(c2ccncc2)CC1               7
17  CNC(=O)NC1=NC(C)(C)N(OCCCOc2cc(Cl)c(Cl)cc2Cl)C(N)=N1               7
18  O=C(/C=C/c1ccc(Cl)c(Cl)c1)NCCCCCN1CCC(NC(=S)Nc2ccc(F)cc2F)CC1              20
19  CCOc1cc(C)ccc1C1CCN(CCCCNC(=O)c2ccc(-c3ccc(C(F)(F)F)cn3)cc2)CC1              55

====

- MEASURED ON: Plasmodium falciparum protein kinase 6 (PK6, PF3D7_1337100)
- EXPERIMENT NOTES: PfPK6 kinase inhibitors, biochemical, TCAMS library (AID 1159586)
- EXPERIMENTAL PARAMETERS: recombinant PfPK6, Kinase-Glo ATP depletion luminescence
Potency and affinity values are given separately. The source made the active and inactive calls. The rule behind the calls is not given here.
OBSERVED PROPERTY: outcome

> print(dat)
                                    compound    result
 1  COc1ccccc1CCN(C)CCN1CCC(NC(=O)c2ccc(-c3ccc(C(F)(F)F)cc3)cc2)CC1  inactive
 2  CC(=O)c1cccc(NC(=O)NC2CCN(CCCCCNC(=O)/C=C/c3ccc(Cl)c(Cl)c3)CC2)c1  inactive
 3       Cc1cc(Nc2ccnc(-c3ccc(Cl)cc3)n2)ccn1  inactive
 4  Cc1c(S(=O)(=O)Nc2ccc3ccn(CCN(C)C)c3c2)sc2ccc(Cl)cc12  inactive
 5  Cc1[nH]c(C)c(-c2ccc(-c3ccc(OC(F)(F)F)cc3)cc2)c(=O)c1Cl  inactive
 6  C[C@@H]1CN(c2cnn(C/C=C/c3ccc(NC(=O)c4ccc([N+](=O)[O-])cc4)cc3)c(=O)c2Cl)C[C@H](C)N1  inactive
 7  CC(=O)Nc1ccc(CCNC(C)Cc2ccc(C(=O)Nc3ccc(CC(C)NCCc4cccc(Cl)c4)cc3)cc2)cc1 (stereo not drawn)  inactive
 8  O=C(Nc1ccccc1)N(Cc1ccc(-c2ccc(CNCc3ccc4c(c3)OCO4)cc2)cc1)C1CCN(Cc2ccccc2)CC1  inactive
 9  O=C(c1cccs1)N1CCN(c2ccc([N+](=O)[O-])c(NC3CC3)c2)CC1  inactive
10  CC(C)(C)c1ccc(C(=O)Nc2cccc(Nc3c(C(=O)NCc4cccc(C(F)(F)F)c4)cnc4c(O)cccc34)c2)cc1  inactive
11  CCc1cn2c3c(cc(C(=O)N[C@@H](Cc4cccc(Cl)c4)[C@H](O)CNC4CCOCC4)cc13)N(C)S(=O)(=O)CC2  inactive
12  CCN(CCCN1CCCCC1)c1cc(C)nc(Nc2cccc(C(F)(F)F)c2C)n1  inactive
13  NC(=O)c1ccc(C(=O)Nc2cccc(-c3csc(-c4nc5ccccc5[nH]4)c3)c2)cc1  inactive
14  O=S(=O)(c1ccc(OCc2ccc(Cl)cc2)cc1)c1cc2c(cc1OCc1ccccc1)CCN(CC1CC1)CC2  inactive
15       CCOc1ccccc1CNc1nccc(NCc2ccccc2OC)n1  inactive
16  Cc1cccc2[nH]c(-c3ccc(-c4ccc(CNCCCN5CCCC5=O)cc4)s3)nc12  inactive
17  CN(C)C(=O)O[C@@H]1CN[C@H](C#Cc2cc3ncnc(Nc4ccc5c(cnn5Cc5cccc(F)c5)c4)c3s2)C1  inactive
18  O=C(NC1CC1)c1ccc(Cn2c(SCc3cccc([N+](=O)[O-])c3)nc3ccccc3c2=O)cc1  inactive

====

- EXPERIMENT NOTES: inhibition of 3D7 malaria parasite growth – strain 3D7 (AID 2306);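 also: 0% = DMSO wells and 100% = chloroquine plus artemisinin control wells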
- EXPERIMENTAL PARAMETERS: P. falciparum 3D7 erythrocytic growth, LDH absorbance, 72 h; at 2 µM; active compounds read high
OBSERVED PROPERTY: growth inhibition (%)

> print(dat)
                                    compound  readout.number
 1  COc1cc(NC(=O)/C=C/c2cc(F)cc(F)c2F)cc(OCCN2CCC(O)(c3ccccc3)CC2)c1             103
 2  O=S(=O)(Nc1cccc(CCN2CCC(N3CCCCC3)CC2)c1)c1cccc(C(F)(F)F)c1             101
 3  CC(CN(C)C)C(=O)Nc1cccc(-c2cccc(-c3nc4ccc(F)cc4[nH]3)c2)c1 (centres undefined)             101
 4  CN1CCN(C(=O)CN2CCC3(CCC2=O)NC(=O)c2ccccc2O3)CC1 (centres undefined)              99
 5  CC(CN1CCN(C)CC1)C(=O)Nc1cccc(-c2ccc(-c3nc4ccccc4[nH]3)s2)c1 (centres undefined)              97
 6  Cc1ccc(Nc2nc(NN=Cc3cc4c(cc3Br)OCO4)nc(Nc3ccc([N+](=O)[O-])cc3)n2)cc1C             100
 7            Clc1cccnc1N1CCN(c2ncccc2Cl)CC1              97
 8  Cn1cncc1C(=O)Nc1cccc(-c2cccc(-c3nc4ccccc4[nH]3)c2)c1             102
 9  COc1cccc(-c2nc3c(N4CCN(c5ccncc5)CC4)cccc3n2CC2CCCCCN2)n1 (centres undefined)              91
10  CCOC(=O)c1c(C)n(-c2ccccc2)c2ccc(OC(=O)c3ccc(S(=O)(=O)N(CC)CC)cc3)cc12              94
11  c1ccc(OCCOc2ccc(Nc3ccnc4cc5ccccc5cc34)cc2)cc1             102
12  CCCCCCNC(=O)c1nn(CCN2CCC(N3CCCC3)CC2)cc1-c1ccc(Cl)c(Cl)c1             101
13  CC(C)N1CCN(C(CN2CCN(CCCOc3cccc4ccccc34)CC2)c2ccc(F)cc2)CC1 (centres undefined)             101
14  CC(C)COc1ccc(Cl)cc1Cc1nc(-c2nc3ccc(CN4CCN(C)CC4)cc3[nH]2)co1             101
15  O=C(/C=C/c1ccccc1)N1CCOC(CCN2CCC(c3ccccc3)CC2)(c2ccc(Cl)c(Cl)c2)C1 (centres undefined)              89
16       NC1=NC2(CCCCC2)N(OCC2CCCCC2)C(N)=N1              96
17      CC1(C)N=C(N)N=C(N)N1c1ccc(Cl)c(Cl)c1              95
18  CC(C)c1ccc(NC(=O)c2ccc(C(=O)NC3CCN(Cc4ccccc4)CC3)cc2)cc1              88
19  CS(=O)(=O)NCCCNCc1ccc(-c2ccc(-c3nc4ccc(F)cc4[nH]3)s2)cc1              95
20  CC(CCc1ccccc1)NCC(O)c1cccc([N+](=O)[O-])c1 (centres undefined)              97
21  CCc1nc2c(cnn2CC)c(NC2CCOCC2)c1CNC(=O)c1ccoc1C              97
22  CCN1CCN(CCCNc2c3ccc(Cl)cc3nc3ccc(OC)cc23)CC1              97
23  OC(c1n[nH]c(=S)n1-c1ccccc1)C(O)c1n[nH]c(=S)n1-c1ccccc1 (centres undefined)              92
24  CCN1CCN(c2cc(C)c3cc(NC(=O)C=Cc4cccc(OC)c4OC)ccc3n2)CC1              99
25  O=C(NCc1cccc(F)c1)Nc1ccc(-c2ccc(-c3nc4ccc(C(F)(F)F)cc4[nH]3)cc2)cc1             100
26  COC(=O)c1ccc(-c2ccc(C(=O)NCC3CCN(c4nc(N)c5cc(OC)c(OC)cc5n4)CC3)cc2)cc1              98
27  CCC1N=C(N)N=C(N)N1OCCCOc1c(Cl)cc(Cl)cc1Cl (centres undefined)              95
28  CN(C)CC(=O)Nc1cccc(Nc2nccc(NCC(O)c3ccccc3)n2)c1 (centres undefined)             102
29  Cc1cc(NCCC(=O)Nc2ccccc2)nc(NCCc2ccc(F)cc2)n1             101
30  COc1ccc2ncc(F)c(CCN3C[C@H](CNCc4cc(C#N)c5c(c4)OCCO5)[C@H](O)C3)c2n1             100
31   Oc1ccccc1CN[C@@H]1CCCC[C@H]1NCc1ccccc1O              96
32  COc1ccc(CN2CCC(NCc3cccc([N+](=O)[O-])c3)CC2)cc1              92
33  O=C(c1ccc(-c2cccc(-c3nc4ccc(F)cc4[nH]3)c2)cc1)N1CCCCC1CN1CCC(O)C1 (centres undefined)              91
34  CC(C)(C)c1nn(-c2ccccc2)c2[nH]c(=O)c(CNC3CCCC3)cc12             100
35     Cc1ccc2[nH]c3c(NCCCN4CCOCC4)ncnc3c2c1             101
36  O=C1CCCN1CCCNCc1cccc(-c2cccc(-c3nc4ccc(F)cc4[nH]3)c2)c1             100
37  Cc1ncccc1C(=O)Nc1ccc(-c2cccc(-c3nc4c(C)cccc4[nH]3)c2)cc1              95
38  COc1ccc(NC(=O)/C=C/c2ccccc2Cl)cc1OCCN1CCN(c2ccncc2)CC1             101
39  CCOc1ccc(C(=O)Nc2nonc2-c2ccc(OC)c(OC)c2)cc1              95
